Experiment: self-splicing fitness, log relative to wild type (ln ratio); higher = more splicing; Tetrahymena group I intron in knt gene, E. coli kanamycin selection, DiMSum; sequences stand for … in CUCUCU…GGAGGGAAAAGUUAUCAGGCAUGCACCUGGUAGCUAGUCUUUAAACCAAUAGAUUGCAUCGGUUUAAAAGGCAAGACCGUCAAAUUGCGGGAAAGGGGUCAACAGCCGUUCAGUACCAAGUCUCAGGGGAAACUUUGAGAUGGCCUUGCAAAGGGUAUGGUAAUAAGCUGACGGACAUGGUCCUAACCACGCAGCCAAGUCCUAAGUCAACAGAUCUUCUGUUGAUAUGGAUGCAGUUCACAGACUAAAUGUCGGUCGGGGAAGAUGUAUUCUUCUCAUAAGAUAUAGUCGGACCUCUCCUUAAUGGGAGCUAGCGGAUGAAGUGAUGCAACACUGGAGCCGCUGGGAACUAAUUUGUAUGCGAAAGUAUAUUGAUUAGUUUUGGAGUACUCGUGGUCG;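 further: selection with 25 µg/mL kanamycin versus none on LB agar overnight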
Settings: 30 °C
QUANTITY_MEASURED: self-splicing fitness (ln)

Consider the following illustrative entries.
[[record]]
entry_sequence = "GAAUAGCAAUAUUACGCCUG"
value_reported = -0.487

[[record]]
entry_sequence = "CGAUAGCAAUAUUACGAUCA"
value_reported = -0.106

[[record]]
entry_sequence = "AUCUAGCAAUAUUACGUGCC"
value_reported = -2.47

[[record]]
entry_sequence = "GCCCAGCAAUAUUACGAUAU"
value_reported = -1.54


Item GAGUAGCAAUAUUACGACUG : provide self-splicing fitness (ln)
0.34

Item CAACAGCAAUAUUACGUUGC : provide self-splicing fitness (ln)
-4.78

Item GAUUAGCAAUAUUACGGACC : provide self-splicing fitness (ln)
-0.347

Item AUAUAGCAAUAUUACGGGUA : provide self-splicing fitness (ln)
-2.09

Item AGAAAGCAAUAUUACGGUCC : provide self-splicing fitness (ln)
-0.555

Item CAAUAGCAAUAUUACGAUGA : provide self-splicing fitness (ln)
-2.26

Item CACCAGCAAUAUUACGGGUG : provide self-splicing fitness (ln)
-3.87

----------
Assay: self-splicing fitness, log relative to wild type (ln ratio); higher = more splicing; Tetrahymena group I intron in knt gene, E. coli kanamycin selection, DiMSum; sequences stand for … in CUCUCU…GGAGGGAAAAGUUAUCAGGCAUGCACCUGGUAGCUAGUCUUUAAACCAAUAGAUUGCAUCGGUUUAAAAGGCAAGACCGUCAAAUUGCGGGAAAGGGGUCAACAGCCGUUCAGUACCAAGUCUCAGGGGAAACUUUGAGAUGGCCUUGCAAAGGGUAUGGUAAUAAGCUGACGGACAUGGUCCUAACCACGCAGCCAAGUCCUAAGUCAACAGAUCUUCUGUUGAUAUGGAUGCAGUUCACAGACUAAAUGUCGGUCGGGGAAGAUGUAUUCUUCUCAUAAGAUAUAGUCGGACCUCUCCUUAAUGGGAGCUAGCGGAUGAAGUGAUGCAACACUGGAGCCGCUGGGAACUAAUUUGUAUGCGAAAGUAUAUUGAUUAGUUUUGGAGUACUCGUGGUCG
Settings: 37 °C
QUANTITY_MEASURED: self-splicing fitness (ln)
Reply with the value as a number alone.

Consider the following illustrative entries.
[[record]]
entry_sequence = "AAUUAGCAAUAUUACGUAAC"
value_reported = -1.55

[[record]]
entry_sequence = "GGCAAGCAAUAUUACGGAUU"
value_reported = -0.427

[[record]]
entry_sequence = "UUAUAGCAAUAUUACGGCCG"
value_reported = -0.565

[[record]]
entry_sequence = "CGGAAGCAAUAUUACGACCA"
value_reported = -0.13


Could you now look at the following sequence, please?
Item AGCAAGCAAUAUUACGCAGC : provide self-splicing fitness (ln)
-2.1
